- STUDY_TARGET: GPIIb/IIIa receptor (Homo sapiens, UniProt P05106+P08514)
- Construct: The GPIIb/IIIa receptor was purified from human platelets; from tissue; host or cells: human platelets (purified according to D'Souza et al., J. Biol. Chem. 1990, 265:3440-3446)
- Sequence (P08514 32-887 limits assumed): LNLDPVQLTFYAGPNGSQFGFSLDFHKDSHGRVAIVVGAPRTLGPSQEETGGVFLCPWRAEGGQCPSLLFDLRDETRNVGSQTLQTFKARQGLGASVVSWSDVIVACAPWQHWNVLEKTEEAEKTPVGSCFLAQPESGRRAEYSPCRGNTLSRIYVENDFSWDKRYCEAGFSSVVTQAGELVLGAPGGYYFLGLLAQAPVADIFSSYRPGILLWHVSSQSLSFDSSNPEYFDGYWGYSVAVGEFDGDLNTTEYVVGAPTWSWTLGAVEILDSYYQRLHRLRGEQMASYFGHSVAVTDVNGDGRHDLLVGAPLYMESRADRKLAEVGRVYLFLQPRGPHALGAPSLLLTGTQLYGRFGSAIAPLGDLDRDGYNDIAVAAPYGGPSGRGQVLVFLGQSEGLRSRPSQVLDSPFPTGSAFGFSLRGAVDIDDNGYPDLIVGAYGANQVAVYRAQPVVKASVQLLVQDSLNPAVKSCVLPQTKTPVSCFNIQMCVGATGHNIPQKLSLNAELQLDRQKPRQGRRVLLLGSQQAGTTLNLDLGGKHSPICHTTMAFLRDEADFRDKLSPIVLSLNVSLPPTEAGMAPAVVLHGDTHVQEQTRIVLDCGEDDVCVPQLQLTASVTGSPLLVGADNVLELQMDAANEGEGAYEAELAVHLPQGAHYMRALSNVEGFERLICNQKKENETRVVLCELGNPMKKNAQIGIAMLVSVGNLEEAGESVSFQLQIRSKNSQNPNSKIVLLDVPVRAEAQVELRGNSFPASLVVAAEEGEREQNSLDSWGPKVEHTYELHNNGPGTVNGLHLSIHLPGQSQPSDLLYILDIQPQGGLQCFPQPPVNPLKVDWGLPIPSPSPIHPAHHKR
- Sequence (P08514 891-1039 partner limits assumed): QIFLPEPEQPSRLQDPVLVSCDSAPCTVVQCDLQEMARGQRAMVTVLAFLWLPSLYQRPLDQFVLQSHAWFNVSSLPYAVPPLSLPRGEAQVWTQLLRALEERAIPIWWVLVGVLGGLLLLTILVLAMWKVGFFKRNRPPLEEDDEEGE
- Sequence (P05106 27-788): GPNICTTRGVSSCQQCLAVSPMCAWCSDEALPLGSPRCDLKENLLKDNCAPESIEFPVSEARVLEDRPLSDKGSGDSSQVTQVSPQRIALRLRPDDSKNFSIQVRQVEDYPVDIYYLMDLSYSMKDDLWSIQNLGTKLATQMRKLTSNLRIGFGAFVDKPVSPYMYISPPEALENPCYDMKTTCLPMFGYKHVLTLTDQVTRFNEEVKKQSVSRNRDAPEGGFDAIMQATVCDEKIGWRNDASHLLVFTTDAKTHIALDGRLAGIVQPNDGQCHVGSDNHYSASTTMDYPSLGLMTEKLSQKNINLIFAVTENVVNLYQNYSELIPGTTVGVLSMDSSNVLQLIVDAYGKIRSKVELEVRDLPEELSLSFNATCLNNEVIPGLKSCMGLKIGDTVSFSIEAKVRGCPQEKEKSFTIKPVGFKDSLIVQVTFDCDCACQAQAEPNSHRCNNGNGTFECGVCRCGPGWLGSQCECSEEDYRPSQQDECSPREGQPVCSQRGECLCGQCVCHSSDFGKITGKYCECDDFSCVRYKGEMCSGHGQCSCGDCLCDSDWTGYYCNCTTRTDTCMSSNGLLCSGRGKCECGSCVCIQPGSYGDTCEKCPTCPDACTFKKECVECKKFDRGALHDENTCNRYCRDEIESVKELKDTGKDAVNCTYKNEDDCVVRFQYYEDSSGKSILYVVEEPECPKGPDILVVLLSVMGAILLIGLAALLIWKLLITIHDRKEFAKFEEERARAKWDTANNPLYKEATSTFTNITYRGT
- ASSAY_OVERVIEW: GPIIb/IIIa Receptor-Biotinylated Fibrinogen Binding Assay
- EXPERIMENTAL_CONDITIONS: inhibition of fibrinogen binding to purified GPIIb/IIIa
Non-standard residues stand in square brackets, D forms with d. Residues, ends and D or L forms follow the SMILES beside them. 3Amb = NCc1cccc(C(=O)O)c1
For each of the molecules below, state its IC50.

Note to self: IC50 of N=C(N)NCCC[C@@H]1NC(=O)[C@@H]2CCCN2C(=O)c2cccc(c2)CNC(=O)[C@H](CC(=O)O)NC(=O)CNC1=O [Compound B, cyclo-(Pro-Arg-Gly-Asp-Mamb)] (cyclo(RGD[3Amb]P)) with GPIIb/IIIa receptor (Homo sapiens, UniProt P05106+P08514) was 1520 nM

Note to self: IC50 of N=C(N)NCCC[C@@H]1NC(=O)[C@H](CCCCN)NC(=O)c2cccc(c2)CNC(=O)[C@H](CC(=O)O)NC(=O)CNC1=O [Compound D, cyclo-(Lys-Arg-Gly-Asp-Mamb)] (cyclo(RGD[3Amb]K)) with GPIIb/IIIa receptor (Homo sapiens, UniProt P05106+P08514) was 359 nM

Note to self: IC50 of C[C@@H]1NC(=O)c2cccc(c2)CNC(=O)[C@H](CC(=O)O)NC(=O)CNC(=O)[C@H](CCCNC(=N)N)NC1=O [Compound A, cyclo-(Ala-Arg-Gly-Asp-Mamb)] (cyclo(RGD[3Amb]A)) with GPIIb/IIIa receptor (Homo sapiens, UniProt P05106+P08514) was 408 nM

Note to self: IC50 of CC(C)C[C@@H]1NC(=O)c2cccc(c2)CNC(=O)[C@H](CC(=O)O)NC(=O)CNC(=O)[C@H](CCCNC(=N)N)NC1=O [Compound E, cyclo-(Leu-Arg-Gly-Asp-Mamb)] (cyclo(RGD[3Amb]L)) with GPIIb/IIIa receptor (Homo sapiens, UniProt P05106+P08514) was 430 nM

###

- STUDY_TARGET: αv /β3 receptor (Homo sapiens, UniProt P05106+P06756)
- Construct: The αv /β3 receptor was isolated from human placental extracts prepared using octylglucoside; from tissue
- Sequence (P06756 31-889 limits assumed): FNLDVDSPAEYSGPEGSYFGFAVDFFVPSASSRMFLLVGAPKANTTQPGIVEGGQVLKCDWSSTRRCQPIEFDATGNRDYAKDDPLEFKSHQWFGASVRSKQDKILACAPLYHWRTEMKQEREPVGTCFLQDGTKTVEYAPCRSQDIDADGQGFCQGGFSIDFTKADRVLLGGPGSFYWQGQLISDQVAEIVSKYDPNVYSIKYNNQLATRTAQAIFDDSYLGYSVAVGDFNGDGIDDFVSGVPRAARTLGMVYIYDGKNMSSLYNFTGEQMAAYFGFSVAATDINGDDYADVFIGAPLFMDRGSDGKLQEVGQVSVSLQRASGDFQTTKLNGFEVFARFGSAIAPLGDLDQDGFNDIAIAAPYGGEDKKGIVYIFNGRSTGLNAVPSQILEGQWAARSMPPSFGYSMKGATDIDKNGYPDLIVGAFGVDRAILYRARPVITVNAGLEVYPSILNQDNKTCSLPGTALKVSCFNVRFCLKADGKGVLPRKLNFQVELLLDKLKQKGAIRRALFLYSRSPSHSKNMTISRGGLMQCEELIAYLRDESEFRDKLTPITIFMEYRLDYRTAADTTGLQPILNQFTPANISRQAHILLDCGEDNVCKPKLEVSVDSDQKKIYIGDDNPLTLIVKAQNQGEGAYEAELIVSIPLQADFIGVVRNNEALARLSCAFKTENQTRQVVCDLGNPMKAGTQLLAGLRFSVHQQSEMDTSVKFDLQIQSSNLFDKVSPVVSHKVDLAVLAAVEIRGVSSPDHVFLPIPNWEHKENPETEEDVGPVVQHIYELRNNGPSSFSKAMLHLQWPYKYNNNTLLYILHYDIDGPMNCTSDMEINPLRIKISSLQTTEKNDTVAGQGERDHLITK
- Sequence (P06756 891-1048 partner limits assumed): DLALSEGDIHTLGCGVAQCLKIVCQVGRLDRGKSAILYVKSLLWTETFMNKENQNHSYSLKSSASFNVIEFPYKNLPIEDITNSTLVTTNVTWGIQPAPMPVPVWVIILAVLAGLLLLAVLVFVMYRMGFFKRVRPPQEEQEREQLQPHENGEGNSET
- Sequence (P05106 27-788): as the sequence (P05106 27-788) above
- ASSAY_OVERVIEW: αv/β3-Biotinylated Vitronectin Binding Assay
- EXPERIMENTAL_CONDITIONS: ratio of IC50 values (GPIIb/IIIa over αv/β3)
Non-standard residues stand in square brackets, D forms with d. Residues, ends and D or L forms follow the SMILES beside them. 3Amb = NCc1cccc(C(=O)O)c1
For each of the compounds below, state its Relative Binding Affinity for αv /β3 Relative to GPIIb/IIIa.
Reply with just the number.

Record C[C@@H]1NC(=O)c2cccc(c2)CNC(=O)[C@H](CC(=O)O)NC(=O)CNC(=O)[C@H](CCCNC(=N)N)NC1=O [Compound A, cyclo-(Ala-Arg-Gly-Asp-Mamb)] (cyclo(RGD[3Amb]A)) . Reported Relative Binding Affinity for αv /β3 Relative to GPIIb/IIIa: 107

Record CC(C)C[C@@H]1NC(=O)c2cccc(c2)CNC(=O)[C@H](CC(=O)O)NC(=O)CNC(=O)[C@H](CCCNC(=N)N)NC1=O [Compound E, cyclo-(Leu-Arg-Gly-Asp-Mamb)] (cyclo(RGD[3Amb]L)) . Reported Relative Binding Affinity for αv /β3 Relative to GPIIb/IIIa: 307

Record N=C(N)NCCC[C@@H]1NC(=O)[C@@H]2CCCN2C(=O)c2cccc(c2)CNC(=O)[C@H](CC(=O)O)NC(=O)CNC1=O [Compound B, cyclo-(Pro-Arg-Gly-Asp-Mamb)] (cyclo(RGD[3Amb]P)) . Reported Relative Binding Affinity for αv /β3 Relative to GPIIb/IIIa: 2171

Record N=C(N)NCCC[C@@H]1NC(=O)[C@H](CCCCN)NC(=O)c2cccc(c2)CNC(=O)[C@H](CC(=O)O)NC(=O)CNC1=O [Compound D, cyclo-(Lys-Arg-Gly-Asp-Mamb)] (cyclo(RGD[3Amb]K)) . Reported Relative Binding Affinity for αv /β3 Relative to GPIIb/IIIa: 189
